- measurementTarget: human µ opiate receptor (human)
- protocol: displacement of [3H]DAMGO from COS cells expressing hµOR1; paragraph 40 says 'low affinities', CLM-00014 calls the value a KD
quantity: pKd
Numbers only, as −log10 of the molar value.

input: pKd for YGGFLRRIRPKLKWDNQ [dynorphin A 1-17] ?
output: 6.55
